# TARGET OR SYSTEM: ORP5 PH (Homo sapiens, UniProt Q9H0X9)
# Construct: gene OSBPL5; PH domain 127-243 of ORP5A, synthetic gene, N-terminal MGSSGSSG and C-terminal RSGPSSGLEEF linkers, GST tag cleaved by thrombin, E. coli
# Sequence (Q9H0X9 127-243): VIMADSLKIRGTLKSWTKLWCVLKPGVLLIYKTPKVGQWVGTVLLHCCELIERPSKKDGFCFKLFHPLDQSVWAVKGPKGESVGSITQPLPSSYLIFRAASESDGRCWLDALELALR
# ASSAY COMMENT: isothermal titration calorimetry
# Type: binding
# CONDITION PARAMETERS: water-soluble diC8 lipid, 25 °C, 50 mM Tris pH 8.0, 100 mM NaCl
# Excerpt: isothermal titration calorimetry on ORP5 PH
pKd: −log10 of the molar value.
READOUT KIND: pKd

A: CCCCCCCC(=O)OC[C@H](COP(=O)(O)O[C@H]1[C@H](O)[C@@H](O)[C@H](OP(=O)(O)O)[C@@H](OP(=O)(O)O)[C@H]1O)OC(=O)CCCCCCC [PtdIns(3,4)P2]
B: CCCCCCCC(=O)OC[C@H](COP(=O)(O)O[C@H]1[C@H](O)[C@@H](OP(=O)(O)O)[C@H](OP(=O)(O)O)[C@@H](OP(=O)(O)O)[C@H]1O)OC(=O)CCCCCCC
Query string: Would you kindly point out which of A and B has the smaller pKd figure? // caller expects the label of the chosen entry
Result string: A

---

# TARGET OR SYSTEM: ORP5 ORD (Homo sapiens)
# Construct: gene OSBPL5; ORD domain 364-746 of ORP5A, His6-ubiquitin tag removed by DUB without extra N-terminal residues, E. coli
# ASSAY COMMENT: isothermal titration calorimetry
# Assay type: binding
READOUT KIND: Kd (µM)

>>> reported_value("CCCCCCCC(=O)OC[C@H](COP(=O)(O)O[C@@H]1[C@H](O)[C@H](OP(=O)(O)O)[C@@H](O)[C@H](O)[C@H]1O)OC(=O)CCCCCCC [PtdIns(3)P]")
9
>>> reported_value("CCCCCCCC(=O)OC[C@H](COP(=O)(O)O[C@@H]1[C@H](O)[C@H](O)[C@@H](OP(=O)(O)O)[C@H](OP(=O)(O)O)[C@H]1O)OC(=O)CCCCCCC [PtdIns(4,5)P2]")
6.7

---

# TARGET OR SYSTEM: ORP8 ORD (Homo sapiens, UniProt Q9BZF1)
# Construct: gene OSBPL8; ORD domain 400-778 of ORP8L, His6-ubiquitin tag removed by DUB without extra N-terminal residues, E. coli
# ASSAY COMMENT: isothermal titration calorimetry
# Type: binding
READOUT KIND: Kd (µM)

>>> reported_value("CCCCCCCC(=O)OC[C@H](COP(=O)(O)O[C@H]1[C@H](O)[C@@H](OP(=O)(O)O)[C@H](O)[C@@H](O)[C@H]1O)OC(=O)CCCCCCC")
5.9

a: CCCCCCCC(=O)OC[C@H](COP(=O)(O)O[C@H]1[C@H](O)[C@@H](O)[C@H](OP(=O)(O)O)[C@@H](OP(=O)(O)O)[C@H]1O)OC(=O)CCCCCCC [PtdIns(3,4)P2]
b: CCCCCCCC(=O)OC[C@H](COP(=O)(O)O[C@@H]1[C@H](O)[C@H](O)[C@@H](OP(=O)(O)O)[C@H](OP(=O)(O)O)[C@H]1O)OC(=O)CCCCCCC [PtdIns(4,5)P2]
c: CCCCCCCC(=O)OC[C@H](COP(=O)(O)O[C@@H]1[C@H](O)[C@H](OP(=O)(O)O)[C@@H](O)[C@H](O)[C@H]1O)OC(=O)CCCCCCC
Query string: Sort the compounds on Kd; start with the lowest figure. Rank the items, then write their labels in that order.
Result string: c, a, b

---

# TARGET OR SYSTEM: ORP5 PH (Homo sapiens)
# Construct: gene OSBPL5; PH domain 127-243 of ORP5A, synthetic gene, N-terminal MGSSGSSG and C-terminal RSGPSSGLEEF linkers, GST tag cleaved by thrombin, E. coli
# ASSAY COMMENT: isothermal titration calorimetry
# Type: binding
READOUT KIND: Kd (µM)
// units = µM; emit number, no label

Query string: Report value: Kd, system: ORP5 PH (Homo sapiens), compound: CCCCCCCC(=O)OC[C@H](COP(=O)(O)O[C@@H]1[C@H](O)[C@H](O)[C@@H](OP(=O)(O)O)[C@H](OP(=O)(O)O)[C@H]1O)OC(=O)CCCCCCC [PtdIns(4,5)P2]
Result string: 7.3

---

# TARGET OR SYSTEM: ORP8 ORD (Homo sapiens)
# Construct: gene OSBPL8; ORD domain 400-778 of ORP8L, His6-ubiquitin tag removed by DUB without extra N-terminal residues, E. coli
# ASSAY COMMENT: isothermal titration calorimetry
# Format: binding
# CONDITION PARAMETERS: water-soluble diC8 lipid, 25 °C, 50 mM Tris pH 8.0, 100 mM NaCl
READOUT KIND: pKd
Quick note: pKd means taking -log10 of the concentration in moles per liter.

Query string: Report value: pKd, system: ORP8 ORD (Homo sapiens), compound: CCCCCCCC(=O)OC[C@H](COP(=O)(O)O[C@H]1[C@H](O)[C@@H](O)[C@H](OP(=O)(O)O)[C@@H](O)[C@H]1O)OC(=O)CCCCCCC
Result string: 5.64

---

# TARGET OR SYSTEM: ORP5 ORD (Homo sapiens)
# Construct: gene OSBPL5; ORD domain 364-746 of ORP5A, His6-ubiquitin tag removed by DUB without extra N-terminal residues, E. coli
# Sequence (Q9H0X9 364-746): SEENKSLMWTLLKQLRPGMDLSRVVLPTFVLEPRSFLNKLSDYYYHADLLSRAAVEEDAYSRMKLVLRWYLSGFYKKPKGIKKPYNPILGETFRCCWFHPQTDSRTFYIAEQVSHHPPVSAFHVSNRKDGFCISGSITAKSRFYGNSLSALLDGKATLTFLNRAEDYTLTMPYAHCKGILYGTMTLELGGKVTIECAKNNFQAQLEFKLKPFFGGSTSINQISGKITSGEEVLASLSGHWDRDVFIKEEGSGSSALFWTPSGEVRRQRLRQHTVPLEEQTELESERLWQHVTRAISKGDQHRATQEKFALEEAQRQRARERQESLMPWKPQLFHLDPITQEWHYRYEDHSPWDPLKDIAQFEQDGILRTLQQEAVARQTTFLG
# ASSAY COMMENT: isothermal titration calorimetry
# Assay type: binding
# CONDITION PARAMETERS: water-soluble diC8 lipid, 25 °C, 50 mM Tris pH 8.0, 100 mM NaCl
pKd: −log10 of the molar value.
READOUT KIND: pKd

>>> reported_value("CCCCCCCC(=O)OC[C@H](COP(=O)(O)O[C@H]1[C@H](O)[C@@H](O)[C@H](OP(=O)(O)O)[C@@H](OP(=O)(O)O)[C@H]1O)OC(=O)CCCCCCC [PtdIns(3,4)P2]")
6.10

I: CCCCCCCC(=O)OC[C@H](COP(=O)(O)O[C@H]1[C@H](O)[C@@H](O)[C@H](OP(=O)(O)O)[C@@H](O)[C@H]1O)OC(=O)CCCCCCC
II: CCCCCCCC(=O)OC[C@H](COP(=O)(O)O[C@H]1[C@H](O)[C@@H](OP(=O)(O)O)[C@H](OP(=O)(O)O)[C@@H](OP(=O)(O)O)[C@H]1O)OC(=O)CCCCCCC
Query string: Would you let me know which has the greater pKd value, I or II ? // caller expects the label of the chosen entry
Result string: II
(II: 5.96, I: 5.17)

---

# TARGET OR SYSTEM: ORP8 PH (Homo sapiens, UniProt Q9BZF1)
# Sequence (Q9BZF1 149-265): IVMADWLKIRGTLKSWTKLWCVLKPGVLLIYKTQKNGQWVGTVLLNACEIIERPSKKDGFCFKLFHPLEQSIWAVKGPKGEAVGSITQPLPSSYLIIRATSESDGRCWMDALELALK
pKd: −log10 of the molar value.
READOUT KIND: pKd

I: CCCCCCCC(=O)OC[C@H](COP(=O)(O)O[C@@H]1[C@H](O)[C@H](O)[C@@H](OP(=O)(O)O)[C@H](OP(=O)(O)O)[C@H]1O)OC(=O)CCCCCCC [PtdIns(4,5)P2]
II: CCCCCCCC(=O)OC[C@H](COP(=O)(O)O[C@H]1[C@H](O)[C@@H](OP(=O)(O)O)[C@H](OP(=O)(O)O)[C@@H](OP(=O)(O)O)[C@H]1O)OC(=O)CCCCCCC
III: CCCCCCCC(=O)OC[C@H](COP(=O)(O)O[C@H]1[C@H](O)[C@@H](O)[C@H](OP(=O)(O)O)[C@@H](OP(=O)(O)O)[C@H]1O)OC(=O)CCCCCCC [PtdIns(3,4)P2]
Query string: Order field: pKd | Direction: descending (largest first) Rank the items, then write their labels in that order.
Result string: III, I, II
(III: 5.54, I: 5.26, II: 4.93)
